Recorded Emax by entry
# Test target: human 5-HT2C receptor (Homo sapiens)
# Procedure text: 5-HT2C receptor-stimulated calcium mobilization (FLIPR) in CHO cells
# Format: cell-based
# Stated conditions: CHO, percentage of the response observed with a maximally effective concentration of 5-HT; read-out: 5-HT2C Function Emax (%)
Metric: Emax (%)

1. Fc1cc2c(c(-c3c(Cl)cccc3Cl)c1)OC(CNC1CCC1)C2 (racemic) [Example 233] :: 20
2. CNCC1Cc2cccc(-c3ccc(Cl)cc3)c2O1 (racemic) [Example 420] :: 80
3. CC(C)(C)c1cc(Cl)cc2c1OC(CN)C2 (racemic) [Example 27] :: 80
4. Cc1cc2c(c(-c3ccc(Cl)cc3Cl)c1)OC(CN)C2 (racemic) [Example 297] :: 100
5. NCC1Cc2cc(F)cc(-c3cccnc3)c2O1 (single isomer, unassigned; (-)) [Example 207] :: 80
6. COc1ccccc1-c1cc(Cl)cc2c1OC(CN)C2 (racemic) [Example 242] :: 90
7. NCC1Cc2cc(F)cc(-c3ccccc3C(F)(F)F)c2O1 (racemic) [Example 108] :: 95
8. NCC1Cc2cccc(-c3ccc(Cl)cc3Cl)c2O1 (single isomer, unassigned; (-)) [Example 149] :: 100
9. Cc1cccc(C)c1-c1cc(Cl)cc2c1OC(CN1CCNCC1)C2 (racemic) [Example 279] :: 70
10. NCC1Cc2cc(C(F)(F)F)cc(-c3ccoc3)c2O1 (racemic) [Example 341] :: 90
11. Cc1ccccc1-c1cc(C(C)C)cc2c1OC(CN)C2 (racemic) [Example 307] :: 90
12. COc1ccc(-c2cc(C(F)(F)F)cc3c2OC(CN)C3)cc1 (racemic) [Example 326] :: 80
13. CNCC1Cc2cc(C)cc(-c3ccc(Cl)cc3)c2O1 (racemic) [Example 481] :: 80
14. COc1cc2c(c(-c3ccc(F)cc3F)c1)OC(CN)C2 (racemic) [Example 364] :: 85
15. CNCC1Cc2cccc(-c3ccccc3F)c2O1 (racemic) [Example 412] :: 90
16. NCC1Cc2c(cccc2-c2ccccc2)O1 (racemic) [Example 1] :: 90
17. NCC1Cc2cc(Cl)cc(-c3ccc(F)cc3F)c2O1 (racemic) [Example 250] :: 90
18. COc1cc2c(c(-c3ccc(Cl)cc3Cl)c1)OC(CN)C2 (racemic) [Example 365] :: 100
19. CNCC1Cc2cccc(-c3cc(C)ccc3C)c2O1 (racemic) [Example 427] :: 80
20. NCC1Cc2cccc(-c3ccsc3)c2O1 (racemic) [Example 44] :: 100
21. NCC1Cc2cccc(-c3c(Cl)cc(Cl)cc3Cl)c2O1 (racemic) [Example 166] :: 90
22. CNCC1Cc2cccc(-c3ccccc3C)c2O1 (racemic) [Example 406] :: 100
23. COc1ccc(-c2cc(C)cc3c2OC(CN)C3)cc1 (racemic) [Example 293] :: 90
24. NCC1Cc2cccc(-c3c(F)cccc3F)c2O1 (racemic) [Example 139] :: 90
25. COc1cc2c(c(-c3ccc(F)c(Cl)c3)c1)OC(CN)C2 (racemic) [Example 373] :: 60
26. COc1cccc(-c2cccc3c2OC(CN)C3)c1OC (racemic) [Example 155] :: 90
27. Cc1cc(Cl)ccc1-c1cccc2c1OC(CN)C2 (single isomer, unassigned; (+)) [Example 158] :: 100
28. COc1cc2c(c(-c3cc(C)ccc3C)c1)OC(CN)C2 (racemic) [Example 370] :: 80
29. NCC1Cc2cc(F)cc(-c3cc(Cl)ccc3Cl)c2O1 (racemic) [Example 221] :: 90
30. CNCC1Cc2cc(C)cc(-c3ccc(Cl)cc3Cl)c2O1 (racemic) [Example 485] :: 90
31. CNCC1Cc2cc(C)cc(-c3cccc(OC)c3OC)c2O1 (racemic) [Example 484] :: 70
32. NCC1Cc2cc(F)cc(-c3ccccn3)c2O1 (racemic) [Example 205] :: 80
33. NCC1Cc2cc(F)cc(-c3cc(F)ccc3F)c2O1 (racemic) [Example 220] :: 90
34. CNCC1Cc2cccc(-c3c(Cl)cccc3Cl)c2O1 (racemic) [Example 433] :: 100
35. NCC1Cc2cc(Cl)cc(-c3cc(F)ccc3F)c2O1 (racemic) [Example 255] :: 90
36. NCC1Cc2cc(F)cc(-c3c(Cl)cccc3Cl)c2O1 (racemic) [Example 230] :: 90

###

# Test target: UniProt P28335
# Procedure text: 5-HT2C receptor-stimulated calcium mobilization (FLIPR) in CHO cells
# Assay type: cell-based
# Stated conditions: calcium mobilization, CHO cells stably expressing human 5-HT2C; read-out: 5-HT2C Function EC50
pEC50: −log10 of the molar value.
Metric: pEC50

1. CNCC1Cc2cc(F)cc(-c3ccccc3C)c2O1 (single isomer, unassigned; (+)) [Example 442] :: 8.22
2. COc1cccc(-c2cc(C(F)(F)F)cc3c2OC(CN)C3)c1OC (racemic) :: 6.57
3. Cc1cc(Cl)ccc1-c1cccc2c1OC(CN)C2 (single isomer, unassigned; (-)) [Example 159] :: 6.20
4. CNCC1Cc2cc(Cl)cc(-c3cc(F)ccc3F)c2O1 (racemic) :: 6.54

###

# Test target: human 5-HT2C receptor (Homo sapiens, UniProt P28335)
# Sequence (P28335 33-458): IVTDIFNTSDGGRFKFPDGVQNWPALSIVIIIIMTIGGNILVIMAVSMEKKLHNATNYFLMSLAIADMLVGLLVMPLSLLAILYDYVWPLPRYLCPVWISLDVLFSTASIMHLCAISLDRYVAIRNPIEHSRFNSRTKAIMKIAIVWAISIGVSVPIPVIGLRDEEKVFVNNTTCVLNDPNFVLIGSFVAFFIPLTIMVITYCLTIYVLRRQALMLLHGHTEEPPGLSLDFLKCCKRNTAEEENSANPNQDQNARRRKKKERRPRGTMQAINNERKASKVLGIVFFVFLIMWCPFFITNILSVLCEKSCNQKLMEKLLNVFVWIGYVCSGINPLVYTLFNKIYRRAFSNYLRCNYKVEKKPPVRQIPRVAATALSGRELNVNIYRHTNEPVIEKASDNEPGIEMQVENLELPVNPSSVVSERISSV
# Procedure text: 5-HT2C receptor-stimulated calcium mobilization (FLIPR) in CHO cells
# Format: cell-based
# Stated conditions: calcium mobilization, CHO cells stably expressing human 5-HT2C; read-out: 5-HT2C Function EC50
pEC50: −log10 of the molar value.
Recorded pEC50 by entry
Metric: pEC50

1. CNCC1Cc2cccc(-c3c(Cl)cccc3Cl)c2O1 (single isomer, unassigned; (+)) [Example 435] :: 7.09
2. CNCC1Cc2cccc(-c3cccc(C)c3)c2O1 (racemic) :: 6.11
3. COc1ccc(-c2cccc3c2OC(CN)C3)cc1 (single isomer, unassigned; (+)) [Example 80] :: 7.77
4. Cc1cccc(-c2cccc3c2OC(CN)C3)c1 (single isomer, unassigned; (-)) [Example 43] :: 6.13

###

# Test target: human 5-HT2C receptor (Homo sapiens, UniProt P28335)
# Procedure text: 5-HT2C receptor-stimulated calcium mobilization (FLIPR) in CHO cells;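 also: Fluo-3-AM fluorescence read on FLIPR every 1 s, agonist added after 10 baseline reads, response taken as peak minus lowest raw fluorescence count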
# Type: cell-based
# Stated conditions: calcium mobilization, CHO cells stably expressing human 5-HT2C; read-out: 5-HT2C Function EC50
Recorded EC50 by entry
Metric: EC50 (nM)

1. NCC1Cc2cccc(-c3ccccc3)c2O1 (single isomer, unassigned; (-)) [Example 38] :: 540
2. Cc1ccc(-c2cccc3c2OC(CN)C3)cc1 (single isomer, unassigned; (+)) [Example 71] :: 1.4
3. NCC1Cc2cc(Cl)cc(-c3cccnc3)c2O1 (racemic) :: 3
4. NCC1Cc2cccc(-c3c(Cl)cccc3Cl)c2O1 (racemic) [Example 140] :: 0.72
5. NCC1Cc2cc(F)cc(-c3ccccc3C(F)(F)F)c2O1 (single isomer, unassigned; (+)) [Example 152] :: 202
6. NCC1Cc2cccc(-c3cccc(F)c3)c2O1 (single isomer, unassigned; (-)) [Example 132] :: 1480
7. NCC1Cc2cc(Cl)cc(-c3ccccc3)c2O1 (single isomer, unassigned; (-)) [Example 86] :: 963
8. CNCC1Cc2cc(F)cc(-c3c(C)cccc3C)c2O1 (single isomer, unassigned; (-)) [Example 559] :: 7

###

Recorded 5-HT2C Function Emax (%) by entry
# Test target: human 5-HT2C receptor (Homo sapiens)
# Sequence (P28335 33-458): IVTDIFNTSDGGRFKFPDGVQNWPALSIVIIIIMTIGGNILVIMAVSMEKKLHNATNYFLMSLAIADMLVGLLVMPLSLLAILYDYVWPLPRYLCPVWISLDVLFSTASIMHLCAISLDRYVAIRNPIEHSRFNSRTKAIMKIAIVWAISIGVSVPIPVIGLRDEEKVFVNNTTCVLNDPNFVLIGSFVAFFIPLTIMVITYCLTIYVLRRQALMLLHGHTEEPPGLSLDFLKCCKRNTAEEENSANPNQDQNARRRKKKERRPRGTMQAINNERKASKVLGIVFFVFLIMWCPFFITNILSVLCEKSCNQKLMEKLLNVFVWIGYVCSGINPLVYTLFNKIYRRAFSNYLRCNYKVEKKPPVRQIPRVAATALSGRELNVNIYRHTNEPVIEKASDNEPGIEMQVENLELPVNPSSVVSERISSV
# Procedure text: 5-HT2C receptor-stimulated calcium mobilization (FLIPR) in CHO cells
# Type: cell-based
# Stated conditions: percentage of the response observed with a maximally effective concentration of 5-HT
Metric: 5-HT2C Function Emax (%)

1. COc1ccc(-c2cccc3c2OC(CN)C3)cc1 (single isomer, unassigned; (-)) [Example 81] :: 50
2. Cc1cccc(-c2cccc3c2OC(CN)C3)c1 (single isomer, unassigned; (-)) :: 80
3. COc1cc2c(c(-c3cc(Cl)ccc3Cl)c1)OC(CN)C2 (single isomer, unassigned; (-)) :: 90
4. CC(C)c1cccc2c1OC(CN)C2 (single isomer, unassigned; (-)) [Example 19] :: 100
5. NCC1Cc2cccc(-c3ccc(C(F)(F)F)cc3)c2O1 (single isomer, unassigned; (+)) [Example 137] :: 90
6. NCC1Cc2cc(Cl)cc(-c3ccccc3)c2O1 (single isomer, unassigned; (-)) :: 90
7. NCC1Cc2cc(F)cc(-c3ccccc3Cl)c2O1 (single isomer, unassigned; (+)) [Example 101] :: 100
8. Cc1cccc(C)c1-c1cc(F)cc2c1OC(CN)C2 (single isomer, unassigned; (-)) [Example 229] :: 100

These entries and their values trace back to patent US7435837B2.
